# Tested on: LXRa homodimer (NR concentration 270 nM)
# experimental protocol: PBM binding z-score (relative to random genomic background probes); higher = stronger binding; sequences stand for … in GC…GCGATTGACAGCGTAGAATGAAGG
So basically, the class depends on measured PBM binding z-score, and the ranges are low end: < -0.2; middle: ≥ -0.2 and < 0.1; high end: ≥ 0.1

Prompt: # bin label for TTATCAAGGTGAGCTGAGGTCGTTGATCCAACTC
Completion: middle

Prompt: How about this sequence: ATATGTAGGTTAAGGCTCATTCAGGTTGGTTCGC
Completion: high end

Prompt: Moving on to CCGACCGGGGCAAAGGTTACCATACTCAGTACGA
Completion: high end

Prompt: Request: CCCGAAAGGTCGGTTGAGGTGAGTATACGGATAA
Completion: high end

Prompt: Next record, please: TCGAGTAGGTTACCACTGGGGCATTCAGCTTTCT
Completion: low end

Prompt: # iterate: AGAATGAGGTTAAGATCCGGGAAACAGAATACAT
Completion: middle

Prompt: Okay, and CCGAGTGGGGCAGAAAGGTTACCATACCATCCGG ?
Completion: high end

Prompt: What would you report for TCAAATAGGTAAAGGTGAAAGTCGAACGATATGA ?
Completion: middle

Prompt: Next up: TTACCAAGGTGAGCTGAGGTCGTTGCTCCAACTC
Completion: low end

Prompt: Also ATCGAAAGGTCGTGAGTTGAGTATACAGAAAGGC ?
Completion: middle

Prompt: Also need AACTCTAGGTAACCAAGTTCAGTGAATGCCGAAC , thanks.
Completion: high end

Prompt: Now consider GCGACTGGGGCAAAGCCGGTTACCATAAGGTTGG .
Completion: low end

Prompt: Again, but for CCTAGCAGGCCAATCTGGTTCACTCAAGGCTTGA
Completion: low end

Prompt: Same question for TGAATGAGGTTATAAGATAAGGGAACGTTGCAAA please.
Completion: middle

Prompt: Another sequence to look at: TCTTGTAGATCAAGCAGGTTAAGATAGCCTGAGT
Completion: low end

Prompt: For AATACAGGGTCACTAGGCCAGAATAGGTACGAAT then?
Completion: high end

Prompt: Okay, and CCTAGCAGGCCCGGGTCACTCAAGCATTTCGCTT ?
Completion: low end

Prompt: Same for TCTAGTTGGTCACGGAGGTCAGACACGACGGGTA
Completion: high end

Prompt: Also need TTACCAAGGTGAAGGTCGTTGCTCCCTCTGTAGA , thanks.
Completion: middle

Prompt: And for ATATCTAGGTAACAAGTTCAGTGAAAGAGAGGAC ?
Completion: high end

Prompt: Moving on to the next sequence: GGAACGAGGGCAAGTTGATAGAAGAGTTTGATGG
Completion: middle

Prompt: Can you handle CGAACAAGGGCATGAGTTGATAGCAAATGCCGAT next?
Completion: low end
